Each record here notes measured viability, T/C.
- Tested on: 817829-284-R-J1-PDC multi-cell spheroid viability
- procedure_text: Anticancer human tumor 817829-284-R-J1-PDC patient-derived colon adenocarcinoma cell line growth inhibition [PI3K]
- condition_summary: second compound 0.1 µM; first compound 0.316 µM; stronger effect = lower value
Give the value in % but do not write % after it.

Record C=CC(=O)N1CCN(c2nc(=O)n(-c3c(C)ccnc3C(C)C)c3nc(-c4c(O)cccc4F)c(F)cc23)C(C)C1 (stereo not given) + Cc1nc(NC(=O)N2CCCC2C(N)=O)sc1-c1ccnc(C(C)(C)C(F)(F)F)c1 , field viability, T/C: 68.1

The recorded viability, T/C for entry CCN1CCN(Cc2ccc(Nc3ncc(F)c(-c4cc(F)c5nc(C)n(C(C)C)c5c4)n3)nc2)CC1 + COc1c(OCCCN2CCOCC2)ccc2c3n(c(=NC(=O)c4cnc(N)nc4)nc12)CCN3 equals 31.3

----------
- Test system: 817829-284-R-J1-PDC multi-cell spheroid viability
- procedure_text: Anticancer human tumor 817829-284-R-J1-PDC cell line growth inhibition [PI3K];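 note: spheroids exposed to agents for seven days before readout; percent of vehicle DMSO control viability which is 100%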
- condition_summary: second compound 1 µM; first compound 0.0316 µM; stronger effect = lower value
Labelling field: enter Yes if recorded viability, T/C is less than 60%. Enter No if it equals or exceeds that cut-off.

Illustrative cases are given below, each with its answer.
[[record]]
molecule = "CNC(=O)c1ccc(N2C(=S)N(c3ccc(C#N)c(C(F)(F)F)c3)C(=O)C2(C)C)cc1F + CC(Nc1ccc2c(c1)OCCn1cc(N3C(=O)OCC3C(F)F)nc1-2)C(N)=O"
subject_of_test = "817829-284-R-J1-PDC multi-cell spheroid viability"
label_class = "Yes"

[[record]]
molecule = "Cn1ncnc1[C@H]1c2n[nH]c(=O)c3cc(F)cc(c23)N[C@@H]1c1ccc(F)cc1 + CC(Nc1ccc2c(c1)OCCn1cc(N3C(=O)OCC3C(F)F)nc1-2)C(N)=O"
subject_of_test = "817829-284-R-J1-PDC multi-cell spheroid viability"
label_class = "Yes"

[[record]]
molecule = "CC(C)NCC(C(=O)N1CCN(c2ncnc3c2C(C)CC3O)CC1)c1ccc(Cl)cc1 (stereo not drawn) + Cc1nc(NC(=O)N2CCCC2C(N)=O)sc1-c1ccnc(C(C)(C)C(F)(F)F)c1"
subject_of_test = "817829-284-R-J1-PDC multi-cell spheroid viability"
label_class = "No"

[[record]]
molecule = "Cn1ncc(Cl)c1-c1cc(C(=O)NC(CN)Cc2cccc(F)c2)sc1Cl (stereo not drawn) + CC(Nc1ccc2c(c1)OCCn1cc(N3C(=O)OCC3C(F)F)nc1-2)C(N)=O"
subject_of_test = "817829-284-R-J1-PDC multi-cell spheroid viability"
label_class = "Yes"

[[record]]
molecule = "CCN1CCN(Cc2ccc(Nc3ncc(F)c(-c4cc(F)c5nc(C)n(C(C)C)c5c4)n3)nc2)CC1 + Cc1nc(NC(=O)N2CCCC2C(N)=O)sc1-c1ccnc(C(C)(C)C(F)(F)F)c1"
subject_of_test = "817829-284-R-J1-PDC multi-cell spheroid viability"
label_class = "Yes"


Ask: A record lists CCCS(=O)(=O)Nc1ccc(F)c(C(=O)c2c[nH]c3ncc(-c4ccc(Cl)cc4)cc23)c1F + CC(Nc1ncnc2nc[nH]c12)c1cc2cccc(Cl)c2c(=O)n1-c1ccccc1 . Is its viability, T/C below 60%?
Reply: No

Ask: Item C#Cc1c(F)ccc2cc(O)cc(-c3ncc4c(N5CC6CCC(C5)N6)nc(OCC56CCCN5CC(F)C6)nc4c3F)c12 (stereo not drawn) + COc1c(OCCCN2CCOCC2)ccc2c3n(c(=NC(=O)c4cnc(N)nc4)nc12)CCN3 : viability, T/C beneath 60%, strictly?
Reply: Yes

----------
- Test system: 817829-284-R-J1-PDC multi-cell spheroid viability
- procedure_text: Anticancer human tumor 817829-284-R-J1-PDC cell line growth inhibition [PI3K];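 note: spheroids exposed to agents for seven days before readout; percent of vehicle DMSO control viability which is 100%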
- condition_summary: second compound 0.0316 µM; first compound 0.000316 µM; stronger effect = lower value
recorded_endpoint: viability, T/C (%)
Give the quantity in %, number only.

Below are worked cases with known answers.
[[record]]
compound = "Cn1ncnc1[C@H]1c2n[nH]c(=O)c3cc(F)cc(c23)N[C@@H]1c1ccc(F)cc1 + Cc1nc(NC(=O)N2CCCC2C(N)=O)sc1-c1ccnc(C(C)(C)C(F)(F)F)c1"
recorded_endpoint = "viability, T/C"
value = 60.7

[[record]]
compound = "CC(=O)c1c(C)c2cnc(Nc3ccc(N4CCNCC4)cn3)nc2n(C2CCCC2)c1=O + CC(Nc1ccc2c(c1)OCCn1cc(N3C(=O)OCC3C(F)F)nc1-2)C(N)=O"
recorded_endpoint = "viability, T/C"
value = 73.5


Lab book: viability, T/C of CC(C)n1nc(-c2ccc3oc(N)nc3c2)c2c(N)ncnc21 + COc1c(OCCCN2CCOCC2)ccc2c3n(c(=NC(=O)c4cnc(N)nc4)nc12)CCN3 noted as 78.5

----------
- System: 817829-284-R-J1-PDC multi-cell spheroid viability
- procedure_text: Anticancer human tumor 817829-284-R-J1-PDC cell line growth inhibition [PI3K];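 note: spheroids exposed to agents for seven days before readout; percent of vehicle DMSO control viability which is 100%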
- condition_summary: second compound 0.0316 µM; first compound 0.00316 µM; stronger effect = lower value
hey, just use Yes if measured viability, T/C is less than 70%, otherwise No

Would you please look over these solved cases?
[[record]]
compound = "CC(C)n1nc(-c2ccc3oc(N)nc3c2)c2c(N)ncnc21 + CC(Nc1ccc2c(c1)OCCn1cc(N3C(=O)OCC3C(F)F)nc1-2)C(N)=O"
label_class = "No"

[[record]]
compound = "CC(=O)c1c(C)c2cnc(Nc3ccc(N4CCNCC4)cn3)nc2n(C2CCCC2)c1=O + CC(Nc1ncnc2nc[nH]c12)c1cc2cccc(Cl)c2c(=O)n1-c1ccccc1"
label_class = "No"

[[record]]
compound = "CC(C)n1nc(-c2ccc3oc(N)nc3c2)c2c(N)ncnc21 + COc1c(OCCCN2CCOCC2)ccc2c3n(c(=NC(=O)c4cnc(N)nc4)nc12)CCN3"
label_class = "Yes"

[[record]]
compound = "CC(C)n1nc(-c2ccc3oc(N)nc3c2)c2c(N)ncnc21 + CC(Nc1ncnc2nc[nH]c12)c1cc2cccc(Cl)c2c(=O)n1-c1ccccc1"
label_class = "Yes"

[[record]]
compound = "CC(=O)c1c(C)c2cnc(Nc3ccc(N4CCNCC4)cn3)nc2n(C2CCCC2)c1=O + CC(Nc1ccc2c(c1)OCCn1cc(N3C(=O)OCC3C(F)F)nc1-2)C(N)=O"
label_class = "No"

[[record]]
compound = "Cn1ncnc1[C@H]1c2n[nH]c(=O)c3cc(F)cc(c23)N[C@@H]1c1ccc(F)cc1 + CC(Nc1ccc2c(c1)OCCn1cc(N3C(=O)OCC3C(F)F)nc1-2)C(N)=O"
label_class = "Yes"

[[record]]
compound = "CCN1CCN(Cc2ccc(Nc3ncc(F)c(-c4cc(F)c5nc(C)n(C(C)C)c5c4)n3)nc2)CC1 + COc1c(OCCCN2CCOCC2)ccc2c3n(c(=NC(=O)c4cnc(N)nc4)nc12)CCN3"
label_class = "Yes"

[[record]]
compound = "CCN1CCN(Cc2ccc(Nc3ncc(F)c(-c4cc(F)c5nc(C)n(C(C)C)c5c4)n3)nc2)CC1 + Cc1nc(NC(=O)N2CCCC2C(N)=O)sc1-c1ccnc(C(C)(C)C(F)(F)F)c1"
label_class = "No"


Ask: In the record for Cn1ncnc1[C@H]1c2n[nH]c(=O)c3cc(F)cc(c23)N[C@@H]1c1ccc(F)cc1 + Cc1nc(NC(=O)N2CCCC2C(N)=O)sc1-c1ccnc(C(C)(C)C(F)(F)F)c1 , is viability, T/C less than 70%?
Reply: No

Ask: Consider CC(=O)c1c(C)c2cnc(Nc3ccc(N4CCNCC4)cn3)nc2n(C2CCCC2)c1=O + COc1c(OCCCN2CCOCC2)ccc2c3n(c(=NC(=O)c4cnc(N)nc4)nc12)CCN3 . Does its viability, T/C lie strictly below 70%?
Reply: Yes

----------
- Tested on: 817829-284-R-J1-PDC multi-cell spheroid viability
- procedure_text: Anticancer human tumor 817829-284-R-J1-PDC cell line growth inhibition [PI3K];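 note: spheroids exposed to agents for seven days before readout; percent of vehicle DMSO control viability which is 100%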
- condition_summary: second compound 0.0316 µM; first compound 0.316 µM; stronger effect = lower value
recorded_endpoint: viability, T/C (%)
Entry rule: numbers only, all in %.

[[record]]
compound = "CC(Cn1ccc(-c2ccc(C#N)c(Cl)c2)n1)NC(=O)c1cc(C(C)O)[nH]n1 (stereo not given) + Cc1nc(NC(=O)N2CCCC2C(N)=O)sc1-c1ccnc(C(C)(C)C(F)(F)F)c1"
value = 118

[[record]]
compound = "CCN1CCN(Cc2ccc(Nc3ncc(F)c(-c4cc(F)c5nc(C)n(C(C)C)c5c4)n3)nc2)CC1 + COc1c(OCCCN2CCOCC2)ccc2c3n(c(=NC(=O)c4cnc(N)nc4)nc12)CCN3"
value = 41.4

[[record]]
compound = "CC(Cn1ccc(-c2ccc(C#N)c(Cl)c2)n1)NC(=O)c1cc(C(C)O)[nH]n1 (stereo not given) + CC(Nc1ncnc2nc[nH]c12)c1cc2cccc(Cl)c2c(=O)n1-c1ccccc1"
value = 98.5

[[record]]
compound = "C#Cc1c(F)ccc2cc(O)cc(-c3ncc4c(N5CC6CCC(C5)N6)nc(OCC56CCCN5CC(F)C6)nc4c3F)c12 (stereo not given) + CC(Nc1ccc2c(c1)OCCn1cc(N3C(=O)OCC3C(F)F)nc1-2)C(N)=O"
value = 58.5


viability, T/C reported for this compound C[C@@H](NC(=O)c1ncnc(N)c1Cl)c1ncc(C(=O)Nc2cc(C(F)(F)F)c(Cl)cn2)s1 + COc1c(OCCCN2CCOCC2)ccc2c3n(c(=NC(=O)c4cnc(N)nc4)nc12)CCN3 : 43.2

Cited source for all entries: PubChem BioAssay AID1963969
